- Tested on: JJN-3 cells
- Test Name: Antiproliferative activity on JJN-3 (NIK translocated) multiple myeloma cells (CellTiter-Glo)
- Type: cell-based, human
- Condition Set: JJN-3 (NIK translocated) cells, 96 hr; averaged values; read-out: JJN-3 Proliferation inhibition (IC50 (nM))
Measurement Name: log10 of IC50 (log10 of the value in nM)

| Compound | Result Value |
| --- | --- |
| Cc1cc(Nc2nccc(-c3cc(C#N)c4c(c3)[C@@](C)(CO)CN4)n2)n(CC2CCCCO2)n1 (single isomer, unassigned) [Compound 68] | 1.58 |
| Cc1cc(Nc2nccc(-c3cc(C#N)c4c(c3)[C@@](C)(CO)CN4)n2)n(CC2CCCN(C)C2)n1 (single isomer, unassigned) [Compound 141] | 1.90 |
| CNC(=O)c1cc(Nc2nccc(-c3cc(C#N)c4c(c3)[C@@](C)(CO)CN4)n2)nn1CCC1CC1 | 2.00 |
| Cc1cc(Nc2nccc(-c3cc(C#N)c4c(c3)[C@@](C)(CO)CN4)n2)n(CC2COCCO2)n1 (single isomer, unassigned) | 2.58 |
| CN(CCO)C[C@@]1(C)CNc2c(C#N)cc(-c3ccnc(Nc4ccn(C)n4)n3)cc21 | 3.19 |
| Cc1cc(Nc2nccc(-c3cc(C#N)c4c(c3)[C@@](C)(CO)CN4)n2)nn1CC1CCCCO1 (some centres unmarked) [Compound 71] | 2.01 |
| CC(=O)OC[C@@]1(C)CNc2c(C#N)cc(-c3ccnc(Nc4cc(C)nn4CC4CCN(C)CC4)n3)cc21 | 1.99 |
| Cc1cc(Nc2nccc(-c3cc(C#N)c4c(c3)[C@@](C)(CO)CN4)n2)n(CC2CCCCO2)n1 (single isomer, unassigned) [Compound 69] | 1.89 |
| C[C@@]1(CO)CNc2c(C#N)cc(-c3ccnc(Nc4cnn(CCC5CC5)c4CN4CCOCC4)n3)cc21 | 3.18 |
| COC(C)Cn1nc(C)cc1Nc1nccc(-c2cc(C#N)c3c(c2)[C@@](C)(CO)CN3)n1 (single isomer, unassigned) | 2.66 |
| Cc1cc(Nc2nccc(-c3cc(C#N)c4c(c3)[C@@](C)(CO)CN4)n2)nn1CC1CCCCO1 (some centres unmarked) [Compound 70] | 2.32 |
| Cc1cc(Nc2nccc(-c3cc(C#N)c4c(c3)[C@@](C)(CO)CN4)n2)n(CC2CCCO2)n1 (single isomer, unassigned) | 2.06 |
| Cc1cc(Nc2nccc(-c3cc(C#N)c4c(c3)[C@@](C)(CO)CN4)n2)n(CC2CCOC2)n1 (single isomer, unassigned) | 2.26 |
| Cc1cc(Nc2nccc(-c3cc(C#N)c4c(c3)[C@@](C)(CO)CN4)n2)n(CC2CCCN(C)C2)n1 (single isomer, unassigned) [Compound 140] | 2.24 |

###

- Subject Of Test: recombinant human NF-kappaB-inducing kinase (NIK/MAP3K14) (Homo sapiens (Human))
- Sequence (Q99558 whole entry): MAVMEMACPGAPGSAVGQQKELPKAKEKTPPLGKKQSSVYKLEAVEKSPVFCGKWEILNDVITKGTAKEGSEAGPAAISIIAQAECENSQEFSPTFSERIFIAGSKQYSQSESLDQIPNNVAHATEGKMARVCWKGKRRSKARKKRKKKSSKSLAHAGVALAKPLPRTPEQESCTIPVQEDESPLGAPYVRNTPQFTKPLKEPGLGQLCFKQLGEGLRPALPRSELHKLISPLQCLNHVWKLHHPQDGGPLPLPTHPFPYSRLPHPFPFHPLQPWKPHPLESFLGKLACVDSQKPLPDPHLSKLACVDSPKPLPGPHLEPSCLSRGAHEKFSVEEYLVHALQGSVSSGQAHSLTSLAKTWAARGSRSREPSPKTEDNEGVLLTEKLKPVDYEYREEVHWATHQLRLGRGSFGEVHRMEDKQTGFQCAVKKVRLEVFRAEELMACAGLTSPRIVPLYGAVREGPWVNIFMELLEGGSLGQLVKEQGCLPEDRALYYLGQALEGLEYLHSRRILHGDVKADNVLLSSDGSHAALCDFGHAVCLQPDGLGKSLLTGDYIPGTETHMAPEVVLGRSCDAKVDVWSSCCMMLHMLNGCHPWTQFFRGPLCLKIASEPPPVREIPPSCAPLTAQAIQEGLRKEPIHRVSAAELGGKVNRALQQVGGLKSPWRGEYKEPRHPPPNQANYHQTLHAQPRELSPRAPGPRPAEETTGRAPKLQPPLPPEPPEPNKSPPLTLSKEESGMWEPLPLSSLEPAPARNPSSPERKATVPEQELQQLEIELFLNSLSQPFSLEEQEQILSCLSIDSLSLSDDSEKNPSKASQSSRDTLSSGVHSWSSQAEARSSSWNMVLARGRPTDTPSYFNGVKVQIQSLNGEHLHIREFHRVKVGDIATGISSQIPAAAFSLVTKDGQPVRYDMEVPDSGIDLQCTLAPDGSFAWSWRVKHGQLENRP
- Test Name: Inhibition of auto-phosphorylation of recombinant human NIK/MAP3K14 activity (AlphaScreen)
- Type: biochemical
- Condition Set: averaged values over all measurements on all batches
Listing: IC50 of selected molecules

| Molecule | Scale Unit | IC50 |
| --- | --- | --- |
| CC(C)Cc1c(Nc2nccc(-c3cc(C#N)c4c(c3)[C@@](C)(CO)CN4)n2)cnn1C [Compound 98] | nM | 2 |
| CC(C)(c1cc(Nc2nccc(-c3cc(C#N)c4c(c3)[C@@](C)(CO)CN4)n2)[nH]n1)S(C)(=O)=O [Compound 65] | nM | 10 |
| CC1(CO)CNc2c(C#N)cc(-c3ccnc(Nc4cnn(CC(F)F)c4)n3)cc21 (stereo not shown) [Compound 30] | nM | 3.2 |
| Cn1nc(Nc2nccc(-c3cc(C#N)c4c(c3)C(C)(CO)CN4)n2)cc1C(=O)N1CCC(F)(F)CC1 (stereo not shown) [Compound 22] | nM | 18 |
| Cn1ccc(Nc2nccc(-c3cc(C#N)c4c(c3)C(C)(CO)CN4)n2)n1 (stereo not shown) [Compound 1] | nM | 4 |
| Cc1cc(Nc2nccc(-c3cc(C#N)c4c(c3)[C@@](C)(CO)CN4)n2)n(CC2CCCO2)n1 (single isomer, unassigned) [Compound 51] | nM | 4.1 |
| Cc1cc(Nc2nccc(-c3cc(C#N)c4c(c3)[C@@](C)(CO)CN4)n2)n(CC2CCCCO2)n1 (single isomer, unassigned) [Compound 69] | nM | 5.8 |
